// provenance: paper PMC9090415

molecular target: P. falciparum apicoplast DNA polymerase (Pf-apPOL) (Plasmodium falciparum, UniProt Q8ILY1); experiment: Fluorescence-based high-throughput DNA polymerase assay (molecular beacon), primary screen and dose-response; type: biochemical; details: DRC-2; read at 5'; concentration 5
Sequence (Q8ILY1 entry or part of it): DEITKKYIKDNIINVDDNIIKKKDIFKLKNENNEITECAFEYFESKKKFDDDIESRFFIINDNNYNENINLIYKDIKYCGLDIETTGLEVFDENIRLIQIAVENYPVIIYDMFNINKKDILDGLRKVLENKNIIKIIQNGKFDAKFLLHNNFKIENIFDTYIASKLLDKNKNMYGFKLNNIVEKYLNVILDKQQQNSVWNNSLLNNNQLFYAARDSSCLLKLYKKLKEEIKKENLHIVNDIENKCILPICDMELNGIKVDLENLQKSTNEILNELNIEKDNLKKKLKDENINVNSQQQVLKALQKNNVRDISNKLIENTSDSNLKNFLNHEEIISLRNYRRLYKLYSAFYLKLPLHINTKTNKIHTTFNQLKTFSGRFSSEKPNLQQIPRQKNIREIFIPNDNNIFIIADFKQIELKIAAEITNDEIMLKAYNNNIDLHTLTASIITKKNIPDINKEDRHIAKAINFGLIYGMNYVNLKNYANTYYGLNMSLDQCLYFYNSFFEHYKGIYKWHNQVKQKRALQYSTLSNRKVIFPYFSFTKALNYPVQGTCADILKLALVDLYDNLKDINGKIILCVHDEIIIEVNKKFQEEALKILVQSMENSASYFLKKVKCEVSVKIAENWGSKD
Can you tell me % inhibition Apo pol 5' 5 for the items I'm about to list?
Numbers only, in %.

[
  {
    "compound": "CC(=O)OCC1=C(C(=O)[O-])N2C(=O)[C@@H](NC(=O)Cc3cccs3)[C@H]2SC1.[Na+]",
    "assayed system": "P. falciparum apicoplast DNA polymerase (Pf-apPOL) (Plasmodium falciparum, UniProt Q8ILY1)",
    "units symbol": "%",
    "recorded measurement": 6.34
  },
  {
    "compound": "C#CC(C=CC)OC(=O)c1ccccc1C(=O)O (centres unmarked)",
    "assayed system": "P. falciparum apicoplast DNA polymerase (Pf-apPOL) (Plasmodium falciparum, UniProt Q8ILY1)",
    "units symbol": "%",
    "recorded measurement": 15
  },
  {
    "compound": "COc1ccc(C2CC(c3ccc(Cl)cc3Cl)Nc3nc(N)nn32)cc1OC (centres unmarked)",
    "assayed system": "P. falciparum apicoplast DNA polymerase (Pf-apPOL) (Plasmodium falciparum, UniProt Q8ILY1)",
    "units symbol": "%",
    "recorded measurement": 22
  },
  {
    "compound": "COc1ccc(/C=C/c2cc(C(=O)O)c3ccccc3n2)cc1",
    "assayed system": "P. falciparum apicoplast DNA polymerase (Pf-apPOL) (Plasmodium falciparum, UniProt Q8ILY1)",
    "units symbol": "%",
    "recorded measurement": 31
  }
]

State the recorded % inhibition Apo pol 5' 5 for every item in the following list.
1. Cc1cc2[nH]c(C(=O)Nc3ccc(F)cc3)c(CN3CCOCC3)c2s1
2. O=C(CCc1csc(NC(=O)Nc2ccccc2)n1)Nc1nc2ccccc2s1
3. Cn1nc(-c2nnc(-c3ccccc3F)o2)c2c1CCN(C(=O)c1ccccc1Cl)C2
4. CCCc1ccc(Oc2coc3cc(OC)ccc3c2=O)cc1

Outgoing:
3.5
-6
20
12
